The measurements presented in this section are drawn from patent US20020028851A1.

System: RAW 264.7 cells
Test: Whole cell inhibition assay for urea output
Type: cell-based, murine
Details: dose 10 μM; γIFN+LPS, 18 hours
MEASURED ATTRIBUTE: urea % suppression of induced production (%)
Number only, in %; omit the unit.

Use the examples below as a reference point.
CC(=NNC(=N)N)c1ccc(O)c(O)c1.Cl [Compound 7] ... 23
CC(=NNC(=N)N)c1cc(C(C)=NNC(=N)N)cc(C(C)=NNC(=N)N)c1 [Compound 1] ... 60
CC(=NNC(=N)N)c1cc(NC(=O)CCCC(=O)Nc2cc(C(C)=NNC(=N)N)cc(C(C)=NNC(=N)N)c2)cc(C(C)=NNC(=N)N)c1.Cl.Cl.Cl.Cl [Compound 13] ... 45
CC(=NNC(=N)N)c1cc(NC(=O)CCCCCCCCC(=O)Nc2cc(C(C)=NNC(=N)N)cc(C(C)=NNC(=N)N)c2)cc(C(C)=NNC(=N)N)c1.Cl.Cl.Cl.Cl [Compound 14] ... 78
CC(=NNC(=N)N)c1ccc(NC(=O)Nc2cc(C(C)=NNC(=N)N)cc(C(C)=NNC(=N)N)c2)cc1.Cl.Cl.Cl [Compound 9] ... 60

// switching to the query molecule
Q. State its urea % suppression of induced production for this molecule: Cl.Cl.N=C(N)NN=C(CCC(=NNC(=N)N)c1ccccc1)c1ccccc1 [Compound 20]
A. 16

---

Measured no2/no3 % suppression of induced production, listed per entry.
Tested on: RAW 264.7 cells
Test: Whole cell inhibition assay for NO (nitrite) output
Type: cell-based, murine
Settings: dose 25 μM; γIFN+LPS, 18 hours
Numeric only. Scale: %

Please review the entries below; each comes with its answer.
Cl.Cl.N=C(N)NN=Cc1cccc(OCCOc2cccc(C=NNC(=N)N)c2)c1 ... 90
CC(=NNC(=N)N)c1ccc(NC(=O)Nc2cc(C(C)=NNC(=N)N)cc(C(C)=NNC(=N)N)c2)cc1.Cl.Cl.Cl ... 71
CC(=NNC(=N)N)c1cc(NC(=O)CCCC(=O)Nc2cc(C(C)=NNC(=N)N)cc(C(C)=NNC(=N)N)c2)cc(C(C)=NNC(=N)N)c1.Cl.Cl.Cl.Cl ... 43

Would you kindly look at the next entry?
Q. Give reported no2/no3 % suppression of induced production for CC(=NNC(=N)N)c1cc(C(C)=NNC(=N)N)cc(C(C)=NNC(=N)N)c1 (RAW 264.7 cells)
A. 72

---

Tested on: RAW 264.7 cells
Assay: Whole cell inhibition assay for arginine uptake
Assay type: cell-based, murine
Conditions: exposed prior to stimulation; uptake measured at 8 hours; read-out: I.C.50 for arginine uptake
Experimental: In the embodiment described in the working example herein, a test population of cells was cultured for about 3 hours so that the cells became firmly adherent. Various concentrations of the potential inhibitors were then added to parallel cultures. One hour later the macrophage stimulators, e.g. including, but not limited to LPS and γIFN, were added. […] The contents of the washed cells are solubilized in 100 μl of formic acid and counted by standard techniques. […]
MEASURED ATTRIBUTE: pIC50
Friendly reminder that pIC50 comes from taking -log10 of the concentration in mol/L.

Q. State its pIC50: CC(=NNC(=N)N)c1cc(NC(=O)CCCCCCCCC(=O)Nc2cc(C(C)=NNC(=N)N)cc(C(C)=NNC(=N)N)c2)cc(C(C)=NNC(=N)N)c1.Cl.Cl.Cl.Cl
A. 5.12

---

MEASURED ATTRIBUTE: melting point

CC(=O)c1cc(NC(=NNC(=N)N)NCC(C)CCCNC(=NNC(=N)N)Nc2cc(C(C)=NNC(=N)N)cc(C(C)=NNC(=N)N)c2)cc(C(C)=O)c1.Cl.Cl.Cl.Cl (stereo not drawn) (hydrate or solvate) ... 258 to 259 °C

Q. Entry COc1ccc(C=NNC(=N)N)cc1OCCCCCOc1cc(C=NNC(=N)N)ccc1OC.Cl.Cl needs its melting point filled in; supply it.
A. 195 to 198 °C

Q. Specify melting point for CC(=O)c1ccc(NC(=O)NCCN(CCNC(=NNC(=N)N)Nc2ccc(C(C)=O)cc2)CCNC(=NNC(=N)N)Nc2ccc(C(C)=NNC(=N)N)cc2)cc1.Cl.Cl.Cl (hydrate or solvate) and stop.
A. 224 to 225 °C (dec.)

---

Assay: Solubility on preparing test solutions
Type: physicochemical
Conditions: preparation of test solutions
MEASURED ATTRIBUTE: Dissolved in (solubility)

CC(=NNC(=N)N)c1cccc(OCCOc2cccc(C(C)=NNC(=N)N)c2)c1.Cl.Cl ... Not soluble;
COc1cc(C=NNC(=N)N)ccc1OCCOc1ccc(C=NNC(=N)N)cc1OC.Cl.Cl ... Not soluble
Cl.Cl.N=C(N)NN=Cc1cccc(OCCOc2cccc(C=NNC(=N)N)c2)c1 ... Not soluble;
COc1ccc(C=NNC(=N)N)cc1OCCCOc1cc(C=NNC(=N)N)ccc1OC.Cl.Cl ... Not soluble

---

The molecules listed here are annotated with their melting point.

Cl.Cl.N=C(N)NN=Cc1cccc(OCCOc2cccc(C=NNC(=N)N)c2)c1 ... 264 to 266 °C
Cl.Cl.N=C(N)NN=C(CCC(=NNC(=N)N)c1ccccc1)c1ccccc1 ... 285 to 286 °C
CC(=O)c1cc(NC(=O)NCCN(CCNC(=NNC(=N)N)Nc2cc(C(C)=NNC(=N)N)cc(C(C)=NNC(=N)N)c2)CCNC(=NNC(=N)N)Nc2cc(C(C)=NNC(=N)N)cc(C(C)=NNC(=N)N)c2)cc(C(C)=O)c1.Cl.Cl.Cl.Cl.Cl.Cl.Cl (hydrate or solvate) ... 245 to 246 °C (dec.)
CC(=O)c1cccc(NC(CCCC(=NNC(=N)N)Nc2cccc(C(C)=O)c2)=NNC(=N)N)c1.Cl.Cl ... 187 to 191 °C

Now let's try a different one.
Q. State its melting point: CC(=O)c1cccc(NC(=NNC(=N)N)c2cc(C(=NNC(=N)N)Nc3cccc(C(C)=O)c3)cc(C(=NNC(=N)N)Nc3cccc(C(C)=O)c3)c2)c1.Cl.Cl.Cl (hydrate or solvate)
A. 270 to 275 °C (dec.)

---

Tested on: RAW 264.7 cells
Experiment: Whole cell inhibition assay for NO (nitrite) output
Format: cell-based, murine
Details: exposed from 8 hours after stimulation; NO output during hours 12-24; mean±std. err., n=3; read-out: I.C.50 for NO output
MEASURED ATTRIBUTE: pIC50
// returns pIC50 (minus log10 of molar concentration), number only

Q. Respond only with pIC50 recorded for CC(=NNC(=N)N)c1cc(NC(=O)CCCCCCCCC(=O)Nc2cc(C(C)=NNC(=N)N)cc(C(C)=NNC(=N)N)c2)cc(C(C)=NNC(=N)N)c1.Cl.Cl.Cl.Cl
A. 4.70

---

Test system: RAW 264.7 cells
Test: Whole cell inhibition assay for urea output
Type: cell-based, murine
Settings: interpolated; γIFN+LPS-activated RAW 264.7, 18 hours; read-out: I.C.50 (in parenthesis), inhibition of urea production
MEASURED ATTRIBUTE: pIC50
Friendly reminder that pIC50 comes from taking -log10 of the concentration in mol/L.

CC(=NNC(=N)N)c1cccc(OCCOc2cccc(C(C)=NNC(=N)N)c2)c1.Cl.Cl [Compound 15, dihydrochloride] ... 5.00
CC(=NNC(=N)N)c1cc(NC(=O)CCCC(=O)Nc2cc(C(C)=NNC(=N)N)cc(C(C)=NNC(=N)N)c2)cc(C(C)=NNC(=N)N)c1.Cl.Cl.Cl.Cl [Compound 13] ... 5.00

Q. Identify pIC50 associated with the molecule CC(=NNC(=N)N)c1ccc(NC(=O)Nc2cc(C(C)=NNC(=N)N)cc(C(C)=NNC(=N)N)c2)cc1.Cl.Cl.Cl [Compound 9, trihydrochloride]
A. 5.00

Q. Dear colleague, please send me the reported pIC50 for CC(=NNC(=N)N)c1ccc(O)c(O)c1.Cl [Compound 7, hydrochloride] when you can.
A. 2.70

Q. Give a short answer stating reported pIC50 for CC(=NNC(=N)N)c1cc(NC(=O)CCCCCCCCC(=O)Nc2cc(C(C)=NNC(=N)N)cc(C(C)=NNC(=N)N)c2)cc(C(C)=NNC(=N)N)c1.Cl.Cl.Cl.Cl [Compound 14] .
A. 6.00

Q. Provide pIC50 value for the following molecule: CC(=NNC(=N)N)c1ccc(NC(=O)Nc2ccc(C(C)=NNC(=N)N)cc2)cc1 [Compound 8]
A. 4.30

Q. Supply reported pIC50 belonging to this molecule: CC(=NNC(=N)N)c1ccc(-n2ccnc2)cc1.Cl [Compound 6, hydrochloride]
A. 3.60

---

This section presents molecules with their documented melting point values.

Previously resolved entries follow.
CC(=O)c1cc(NC(=O)NCCCN(CCCNC(=NNC(=N)N)Nc2cc(C(C)=NNC(=N)N)cc(C(C)=NNC(=N)N)c2)CCCNC(=NNC(=N)N)Nc2cc(C(C)=NNC(=N)N)cc(C(C)=NNC(=N)N)c2)cc(C(C)=O)c1.Cl.Cl.Cl.Cl.Cl.Cl.Cl (hydrate or solvate) ... 250 to 251 °C (dec.)
COc1cc(C=NNC(=N)N)ccc1OCCOc1ccc(C=NNC(=N)N)cc1OC.Cl.Cl ... 322 to 323 °C (dec.)
CC(=NNC(=N)N)c1cc(NC(=O)c2ccccc2)cc(C(C)=NNC(=N)N)c1.Cl.Cl ... 268 to 272 °C
CC(=NNC(=N)N)c1cc(NC(=N)NC(=N)N)cc(C(C)=NNC(=N)N)c1.Cl.Cl.Cl ... 294 to 297 °C

Q. Return melting point (reported value) for this molecule: COc1ccc(C=NNC(=N)N)cc1OCCCOc1cc(C=NNC(=N)N)ccc1OC.Cl.Cl
A. 233 to 235 °C

Q. For CC(=O)c1ccc(NC(=O)NCCCN(CCCNC(=NNC(=N)N)Nc2ccc(C(C)=O)cc2)CCCNC(=NNC(=N)N)Nc2ccc(C(C)=NNC(=N)N)cc2)cc1.Cl.Cl.Cl (hydrate or solvate) , write its melting point.
A. 209 to 210 °C (dec.)
